system: S. pneumoniae ATCC 51916; assay: MIC, S. pneumoniae; assay type: cell-based; conditions: S. pneumoniae
property: MIC Spn52 (µg/mL)

Worked set:
CCc1[nH]c2nc(Oc3cccnc3)nc(Oc3cncnc3)c2c1Br.O=C(O)C(F)(F)F : 8
CCc1[nH]c2nc(Sc3cnc4nccnc4c3)nc(NCCN(C)C)c2c1Cl.O=C(O)C(F)(F)F : 32
CCc1[nH]c2nc(Sc3cnc4nccnc4c3)nc(N3CCC[C@H]3CN)c2c1Cl : 32
CCc1[nH]c2nc(Sc3cnc4nccnc4c3)nc(NC[C@H](C)O)c2c1Cl : 2
CCc1[nH]c2nc(Sc3cnc4nccnc4c3)nc(N3CC(NS(=O)(=O)c4cnoc4C)C3)c2c1Cl : 2

1: CCc1[nH]c2nc(Sc3cnc(N4CCC4)c(C#N)c3)nc(N3CCC(N)C3)c2c1Cl (centres unmarked)
2: CCc1[nH]c2nc(Sc3cnc4nccnc4c3)nc(N3CC(CNC(=O)[C@@H]4CCC(=O)N4)C3)c2c1Cl
3: CCc1[nH]c2nc(Sc3ccc4c(N)nc(C)nc4c3)nc(N3CC[C@@H](N)C3)c2c1Cl
4: CCOc1nc(Sc2ccc(NC3CC3)nn2)nc2[nH]c(CC)c(Cl)c12
Hey, can you sort those compounds up there by MIC Spn52, smallest first? Sort the labels as requested; that list is your answer.
3, 1, 2, 4
